# target-under-test: CaMKK2 (Mus musculus)
# Sequence (Q8C078 whole entry): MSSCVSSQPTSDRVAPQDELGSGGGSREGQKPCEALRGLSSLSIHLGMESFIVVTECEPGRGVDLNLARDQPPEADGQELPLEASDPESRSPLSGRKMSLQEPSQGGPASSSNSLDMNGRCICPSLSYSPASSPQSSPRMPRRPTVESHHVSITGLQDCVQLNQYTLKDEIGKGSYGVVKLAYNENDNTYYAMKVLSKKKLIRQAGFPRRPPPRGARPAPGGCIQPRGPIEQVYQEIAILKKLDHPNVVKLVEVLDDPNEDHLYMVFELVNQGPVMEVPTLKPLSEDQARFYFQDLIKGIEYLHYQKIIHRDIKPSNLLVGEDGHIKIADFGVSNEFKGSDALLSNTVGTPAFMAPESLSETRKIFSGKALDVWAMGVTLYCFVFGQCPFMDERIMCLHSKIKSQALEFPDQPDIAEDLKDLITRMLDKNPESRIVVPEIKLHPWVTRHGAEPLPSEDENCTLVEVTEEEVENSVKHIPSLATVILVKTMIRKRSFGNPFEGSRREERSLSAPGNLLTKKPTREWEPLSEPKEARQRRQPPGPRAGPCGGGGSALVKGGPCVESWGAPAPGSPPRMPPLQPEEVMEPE
# experiment-description: Kinobeads elution with test compound, mouse brain lysate, MS
# Type: binding
# condition-set: kinase released from kinobeads by specific elution
measured-quantity: number of identified peptides, CaMKK2

INSERT INTO assay_data (molecule, experimental_value) VALUES
  ('CCCCCCCCCCCCOS(=O)(=O)[O-].[Na+]', 10),
  ('NCc1ccc(Nc2ncc(F)c(Nc3ccccc3)n2)cc1', 12),
  ('Cn1c(=O)c(-c2c(Cl)cccc2Cl)cc2cnc(Nc3ccc(CN)cc3)cc21', 3),
  ('CC(C)[C@H](CO)Nc1nc(Nc2ccc(C(=O)O)c(Cl)c2)c2ncn(C(C)C)c2n1 [Purvalanol B, reference compound]', 9),
  ('NCCCn1cc(C2=C(c3c[nH]c4ccccc34)C(=O)NC2=O)c2ccccc21 [CZC1038, Bisindolylmaleimide III, reference compound]', 6),
  ('CNC1CC2OC(C)(C1OC)n1c3ccccc3c3c4c(c5c6ccccc6n2c5c31)C(=O)NC4 (stereo not drawn)', 10);
